B1: Pistol ribozyme (parent)
chain: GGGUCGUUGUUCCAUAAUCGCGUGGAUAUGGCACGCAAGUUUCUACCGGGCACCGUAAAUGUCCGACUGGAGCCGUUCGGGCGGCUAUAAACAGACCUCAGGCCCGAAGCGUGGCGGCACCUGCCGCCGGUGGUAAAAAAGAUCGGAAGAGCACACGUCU

variants of: B1; test: aptazyme ON/OFF ratio, guanine; higher = stronger switching; co-transcriptional cleavage with and without guanine
measuredParameter: aptazyme ON/OFF ratio
Answer field: number only, no words.

Here are 4 variants together with their reported answers.
{"columns": ["variant", "aptazyme ON/OFF ratio"],
 "data": [
  ["U7C U8A G9C U10C C12G C13U", 1.07],
  ["U7C U8G G9U C12U C13U", 1.2],
  ["U7G U8G G9C U10G U11A C13A", 1.1],
  ["U7G G9U U10C U11C C12U C13G", 1.23]
]}

// moving on: another record for aptazyme ON/OFF ratio
Measured aptazyme ON/OFF ratio, U7C G9A U10C U11A : 2.6

Entry source: the RNAGym collection of RNA variant scans (doi:10.1021/acssynbio.7b00057)
